# target or system: bovine α1-acid glycoprotein (AAG), orosomucoid (Bos taurus, UniProt Q3SZR3)
# Construct: gene ORM1; native plasma glycoprotein, commercial (Sigma-Aldrich), mature form
# Sequence (Q3SZR3 19-202): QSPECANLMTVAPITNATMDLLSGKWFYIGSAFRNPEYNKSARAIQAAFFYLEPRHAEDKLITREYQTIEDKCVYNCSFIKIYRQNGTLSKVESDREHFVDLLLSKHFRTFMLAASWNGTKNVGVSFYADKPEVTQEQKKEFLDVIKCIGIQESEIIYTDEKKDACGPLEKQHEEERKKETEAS
# assay text: intrinsic fluorescence quenching, excitation […] nm
# Format: binding
# study conditions: 297 K, phosphate buffer pH 7.5; double-log
The entries below are paired with their reported Binding / Kb × 10^3 [dm^3.mol^-1].

Known Binding / Kb × 10^3 [dm^3.mol^-1] results, listed for orientation:
{"compound": "COc1ccccc1N1CCN(CC(O)CN2C(=O)c3ccccc3C2=O)CC1 (stereo not shown)", "experimental value": "1.21 × 10^3 dm^3·mol^−1"}
{"compound": "O=C1c2ccccc2C(=O)N1CC(O)CN1CCN(c2cccc(C(F)(F)F)c2)CC1 (stereo not shown)", "experimental value": "4.17 × 10^3 dm^3·mol^−1"}
{"compound": "O=C1c2ccccc2C(=O)N1CC(O)CN1CCN(c2ccccc2)CC1 (stereo not shown)", "experimental value": "2.12 × 10^3 dm^3·mol^−1"}

# input for lookup
## Task Give its Binding / Kb × 10^3 [dm^3.mol^-1] value. Item: O=C1c2ccccc2C(=O)N1CC(O)CN1CCN(C(c2ccccc2)c2ccccc2)CC1 (stereo not shown)
## Result 2.75 × 10^3 dm^3·mol^−1
